Reported SCNN1A mRNA level, Dex values for the following compounds.
Tested on: SCNN1A gene expression in BEAS-2B cells
measurement protocol: TGF-β-induced suppression of dexamethasone-induced SCNN1A gene expression in BEAS-2B cells
Type: cell-based
measurement context: BEAS-2B, agent 10 μM
State the answer as a number, implicitly in fold control.

Example entries and their recorded answers appear below.
Query :: Given the compound CCCCN1CCC(n2cnc(-c3ccc(F)cc3)c2-c2ccnc(N)n2)CC1 , what is its reported SCNN1A mRNA level, Dex?
Result :: 3.46

Query :: Do the same for Cc1ccc(-c2ncn(C3CCCCC3)c2-c2ccnc(N)n2)cc1 please
Result :: 3.06

Query :: Lookup Nc1nccc(-c2c(-c3ccc(F)cc3)ncn2C2CCN(CCCCc3ccccc3)CC2)n1
Result :: 3.79

Further cases:
Query :: Fill in: SCNN1A mRNA level, Dex of CCCCCCCCN1CCC(n2cnc(-c3ccc(F)cc3)c2-c2ccnc(N)n2)CC1 is ___
Result :: 6.57

Query :: // same read-out, input: Nc1nccc(-c2c(-c3ccc(F)cc3)ncn2C23CC4CC(CC(C4)C2)C3)n1
Result :: 4.26
